// data source = patent US4073942A

- Assay Info: Acute toxicity after oral application, 72 hours observation
- Format: in vivo
- Condition Description: mouse, in vivo, po; white mice, 72 hours observation
Structures can show the parent of a compound that is named as a salt.
Reported LD50 at 72 h values for the following molecules.
Measurement Name: LD50 at 72 h

# Molecule, Measurement Name, Observed
measured = [
    ("CCC(C)(C)NCc1cc(Br)cc(Br)c1O.Cl", "LD50 at 72 h", "> 5000 mg/kg"),
    ("Oc1c(Br)cccc1CN[C@H]1CC[C@H](O)CC1", "LD50 at 72 h", "> 500 mg/kg"),
    ("CN(Cc1cc(Cl)c(O)c(Br)c1)C1CCCCC1.Cl", "LD50 at 72 h", "> 500 mg/kg"),
    ("CC(CO)(CO)NCc1cc(Br)cc(Br)c1O [G, hydrochloride]", "LD50 at 72 h", "> 5000 mg/kg"),
    ("CN(Cc1cc(Br)cc(Br)c1O)C1CCCCC1 [J, hydrochloride]", "LD50 at 72 h", "> 5000 mg/kg"),
    ("Cl.Oc1c(Br)cc(CN[C@H]2CCC[C@@H](O)C2)cc1Br (relative stereo)", "LD50 at 72 h", "> 1000 mg/kg"),
    ("Oc1c(Br)cc(Br)cc1CN[C@H]1CC[C@H](O)CC1", "LD50 at 72 h", "> 5000 mg/kg"),
    ("CCN(Cc1cc(Br)c(O)c(Br)c1)C1CCCCC1", "LD50 at 72 h", "> 1000 mg/kg"),
]

---

- Tested on: white mice
- Assay Info: Acute toxicity after oral application, 72 hours observation
- Type: in vivo
- Condition Description: white mice, 5000 mgm/kg p.o., 72 hours
Counter-ions that a name gives are not always drawn.
Each item that follows carries a reported animals dead.

# Molecule, System, animals dead
data = [
    ("CC(CO)(CO)NCc1cc(Br)cc(Br)c1O [G, hydrochloride]", "white mice", "0 of 5"),
    ("Oc1c(Br)cc(Br)cc1CN[C@H]1CC[C@H](O)CC1 [F]", "white mice", "0 of 5"),
    ("CN(Cc1cc(Br)cc(Br)c1O)C1CCCCC1 [J, hydrochloride]", "white mice", "1 of 5"),
    ("CCC(C)(C)NCc1cc(Br)cc(Br)c1O.Cl [Compound I]", "white mice", "0 of 5"),
]

---

- System: secretion in anesthetized rabbits or guinea pigs
- Assay Info: Expectorant effect: secretolytic activity, increase of secretion within 2 hours after oral application
- Type: in vivo
- Condition Description: 8 mgm/kg oral
Structures can show the parent of a compound that is named as a salt.
change in vivo at 8 mg/kg overview

# Compound, change in vivo at 8 mg/kg (%)
records = [
    ("Oc1c(Br)cccc1CN[C@H]1CC[C@H](O)CC1", 66),
    ("CC(CO)(CO)NCc1cc(Cl)c(O)c(Cl)c1 [H, hydrochloride]", 88),
    ("CCC(C)(C)NCc1cc(Br)cc(Br)c1O.Cl [Compound I, hydrochloride]", 80),
    ("CCN(Cc1cc(Br)cc(Br)c1O)C1CCCCC1 [Compound A, hydrochloride]", 81),
    ("Oc1c(Br)cc(Br)cc1CN[C@H]1CC[C@H](O)CC1", 70),
    ("CCN(Cc1cc(Br)c(O)c(Br)c1)C1CCCCC1", 87),
    ("CC(CO)(CO)NCc1cc(Br)cc(Br)c1O [G, hydrochloride]", 88),
    ("CN(Cc1cc(Cl)c(O)c(Br)c1)C1CCCCC1.Cl [E, hydrochloride]", 65),
]
